Just for reference, PubChem BioAssay (NCATS) is where these values come from.

# Tested on: Zika virus NS2B-NS3 protease (unlinked)
# protocol-details: Optimization of GU AMC qHTS for Zika virus inhibitors: Unlinked NS2B-NS3 protease assay (AID 1347151); also: nearly all actives have a fitted effect of over 80% in size
# assay-setup: recombinant ZIKV NS2B-NS3 protease, fluorogenic AMC substrate; series mostly up to 52.5 µM
Records with an inconclusive call do not appear. The source made the active and inactive calls. Calls follow the shape of the dose curve; as a rule, active = well fitted inhibition curve with a large enough effect; inconclusive = small, poorly fitted or top-dose-only effect; inactive = no such curve, though single readings can be large or run the other way.
Outcomes: True = active, False = inactive

{"columns": ["compound", "label-value"],
 "data": [
  ["CCCCN(CCCC)CC(O)c1cc(Cl)cc2c1-c1ccc(Cl)cc1/C2=C/c1ccc(Cl)cc1 (stereo not drawn)", "False"],
  ["CC1=C(CC(=O)O)c2cc(F)ccc2/C1=C\\c1ccc(S(C)(=O)=O)cc1", "False"],
  ["CNCCCC1c2ccccc2C=Cc2ccccc21", "True"],
  ["OCc1cc(C(O)CNCCCCCCOCCCCc2ccccc2)ccc1O (stereo not drawn)", "True"],
  ["CC1=C(/C=C/C(C)=C/C=C/C(C)=C/C(=O)O)C(C)(C)CCC1", "False"],
  ["N=c1c[n+](N2CCOCC2)[n-]o1", "False"],
  ["CC(C)(C(=O)O)c1ccc(C(O)CCCN2CCC(C(O)(c3ccccc3)c3ccccc3)CC2)cc1 (stereo not drawn)", "False"],
  ["CSc1ccc2c(c1)C(N1CCN(C)CC1)Cc1ccccc1S2 (stereo not drawn)", "False"],
  ["CC1=C(CC(=O)O)c2cc(F)ccc2/C1=C\\c1ccc(S(C)=O)cc1 (stereo not drawn)", "False"],
  ["Nc1ncnc2c1ncn2[C@@H]1O[C@H](CO)[C@@H](O)[C@H]1O", "False"],
  ["CCN(CC)CCNC(=O)c1cc(Cl)c(N)cc1OC", "False"],
  ["N[C@H](C(=O)O)c1ccc(O)cc1", "False"],
  ["CC(=O)c1ccc2c(c1)N(CCCN(C)C)c1ccccc1S2", "False"],
  ["COC(=O)C1=C(C)NC(C)=C(C(=O)OC)C1c1ccccc1[N+](=O)[O-]", "False"],
  ["CN(C)CCCN1c2ccccc2Sc2ccc(Cl)cc21", "False"],
  ["CN1CCN(C2Cc3ccccc3Sc3ccc(Cl)cc32)CC1 (stereo not drawn)", "False"],
  ["CCN(CC)CCNC(=O)c1c(C)[nH]c(/C=C2\\C(=O)Nc3ccc(F)cc32)c1C", "False"],
  ["CC(C)C(=O)c1c(C(C)C)nn2ccccc12", "False"],
  ["CNCCC(Oc1ccc(C(F)(F)F)cc1)c1ccccc1 (stereo not drawn)", "False"],
  ["CNCC(O)c1ccc(O)c(O)c1 (stereo not drawn)", "False"],
  ["O=C1N=C(O)CN1/N=C/c1ccc(-c2ccc([N+](=O)[O-])cc2)o1", "False"],
  ["C[C@](N)(Cc1ccc(O)cc1)C(=O)O", "False"],
  ["CC(C)c1c(C(=O)Nc2ccccc2)c(-c2ccccc2)c(-c2ccc(F)cc2)n1CC[C@@H](O)C[C@@H](O)CC(=O)O", "False"]
]}
